Please respond with reported GI50 for every item in the list.
System: HCT-116
Experiment: NCI tumour cell line growth inhibition, 48 h
Active and inactive are the calls of the source. No stated cut-off is given here; in the data, active = GI50 up to about 1.1 µM and inactive = higher.

## Task Consider the molecule shown here: `O=C(/C=C/c1cc(Cl)cc(Cl)c1O)c1cccc(O)c1` What is its recorded GI50?
## Result 42.4 µM (inactive)

## Task Consider the molecule shown here: `O=C(O)CCc1ccc2c(c1)CC1(Cc3ccccc3C1)C2` What is its recorded GI50?
## Result > 100 µM (inactive)

## Task Consider the molecule shown here: COc1cc2c(cc1O)C(c1cc(O)c(O)c(OC)c1)C(O)(C(=O)O)C(CO)C2O (stereo not given) What is its recorded GI50?
## Result 18.3 µM (inactive)

## Task Consider the molecule shown here: COc1ccc(C2C3=C(COC3=O)OC(C)(C)Oc3cc4c(cc32)OCO4)cc1OC (stereo not given) What is its recorded GI50?
## Result 34.6 µM (inactive)

## Task Consider the molecule shown here: OCC1OC(c2n[nH]c3c(O)ncnc23)C(O)C1O (stereo not given) What is its recorded GI50?
## Result 7.28 µM (inactive)

## Task Consider the molecule shown here: `Sc1nn2c(COc3cccc(OCc4nnc5sc(S)nn45)c3)nnc2s1` What is its recorded GI50?
## Result > 100 µM (inactive)

## Task Consider the molecule shown here: `COc1cc([C@H]2Oc3cc(O)c4c(=O)cc(-c5ccc(O)cc5)oc4c3O[C@@H]2CO)ccc1O` What is its recorded GI50?
## Result 13.5 µM (inactive)

## Task Consider the molecule shown here: COC(=O)C1CCOC(C)N1C(=O)OC(C)(C)C (stereo not given) What is its recorded GI50?
## Result > 100 µM (inactive)

## Task Consider the molecule shown here: COc1ccc(/C(=N\NC(=N)N)C(c2ccc(OC)cc2)C2OC(=O)c3ccccc32)cc1 (stereo not given) What is its recorded GI50?
## Result > 100 µM (inactive)

## Task Consider the molecule shown here: C=C1C(=O)OC2CC(C)C3CC(O)OC(OCC)C3(C)CC12 (stereo not given) What is its recorded GI50?
## Result 11.9 µM (inactive)

## Task Consider the molecule shown here: `O=c1[nH]ncc2[nH]c3c4ccccc4ccc3c12` What is its recorded GI50?
## Result 42.2 µM (inactive)

## Task Consider the molecule shown here: COC(=O)C1=C(C)N(NC(N)=O)C2(N)N(NC(N)=O)C(C)=C(C(=O)OC)C12C(=O)OC (stereo not given) What is its recorded GI50?
## Result > 100 µM (inactive)

## Task Consider the molecule shown here: C=C(Cl)C(Cl)(CBr)CCC(Br)C(C)(C)Br (stereo not given) What is its recorded GI50?
## Result 1.74 µM (inactive)

## Task Consider the molecule shown here: `Fc1cc(-c2cc(-c3ccc4c(c3)OCO4)n[nH]2)c(Cl)cc1Cl` What is its recorded GI50?
## Result 2 µM (inactive)

## Task Consider the molecule shown here: `COC(NC(=O)Nc1ccccc1C)(C(F)(F)F)C(F)(F)F` What is its recorded GI50?
## Result > 100 µM (inactive)

## Task Consider the molecule shown here: `COc1ccc2c(c1)CCN=C2c1ccccc1CCCCl` What is its recorded GI50?
## Result 18.2 µM (inactive)

## Task Consider the molecule shown here: `CCCCN(Cc1ccccc1)/C(=N/C#N)N(Cc1ccccc1)Cc1ccccc1` What is its recorded GI50?
## Result 5.16 µM (inactive)

## Task Consider the molecule shown here: `CCCCCN(CCCCC)C(=O)[C@@H](CCC(=O)OCc1ccccc1)NC(=O)c1cc2ccccc2[nH]1` What is its recorded GI50?
## Result > 100 µM (inactive)

## Task Consider the molecule shown here: C[N+]1=C2[B-](C(C)(C)C)=[N+](C(C)(C)C)[B-]2(C(C)(C)C)[N+](C)=C2[B-](C(C)(C)C)=[N+](C(C)(C)C)[B-]21C(C)(C)C (stereo not given) What is its recorded GI50?
## Result > 100 µM (inactive)

## Task Consider the molecule shown here: `C#CN1C(=O)c2c(c(-c3ccccc3)c(-c3ccc(Oc4ccc(-c5c(-c6ccccc6)c6c(c(-c7ccccc7)c5-c5ccccc5)C(=O)N(C#C)C6=O)cc4)cc3)c(-c3ccccc3)c2-c2ccccc2)C1=O` What is its recorded GI50?
## Result > 100 µM (inactive)

## Task Consider the molecule shown here: CCOc1cc2c(cc1OC(C)=O)C(=O)CC[C@H]1C3CC[C@H](OC(C)=O)[C@@]3(C)CC[C@H]21 (stereo not given in full) What is its recorded GI50?
## Result > 100 µM (inactive)

## Task Consider the molecule shown here: `CCCCc1ccc(Nc2nc(SC)c3[nH]cnc3n2)cc1` What is its recorded GI50?
## Result 23.6 µM (inactive)

## Task Consider the molecule shown here: C=C1C(=O)OC2CC3(CO3)C3C(O)C(O)CC3(C)CC12 (stereo not given) What is its recorded GI50?
## Result 18.2 µM (inactive)

## Task Consider the molecule shown here: `O=S(=O)(O)c1cc(S(=O)(=O)O)c2c(Nc3ccnc4ccccc34)ccc(S(=O)(=O)O)c2c1` What is its recorded GI50?
## Result > 100 µM (inactive)

## Task Consider the molecule shown here: O=C1C2C(C(=O)N1O)N(Cc1ccccc1)C(=O)N2Cc1ccccc1 (stereo not given) What is its recorded GI50?
## Result > 100 µM (inactive)

## Task Consider the molecule shown here: `C/C(=N\Nc1nc2cc(F)ccc2s1)c1ccccn1` What is its recorded GI50?
## Result < 0.0161 µM (active)

## Task Consider the molecule shown here: `O=C(c1ccccc1)N1C(=S)NC(=N/c2ccccc2)/C1=N\c1ccccc1` What is its recorded GI50?
## Result > 100 µM (inactive)

## Task Consider the molecule shown here: `Nc1ccccc1OCc1cc(=O)c(OCc2ccccc2)co1` What is its recorded GI50?
## Result 64.7 µM (inactive)

## Task Consider the molecule shown here: CN(C)c1ccc(/C=C(\NC(=O)c2ccccc2)C2=NC(CCC(=O)O)C(=O)O2)cc1 (stereo not given) What is its recorded GI50?
## Result > 50 µM (inactive)

## Task Consider the molecule shown here: CC1(Br)CC2OC3(Br)C=CC(C)(O)C2(CC1=O)C3(C)C (stereo not given) What is its recorded GI50?
## Result > 92 µM (inactive)

## Task Consider the molecule shown here: COC(=O)C1CC23C=CCN4CC(C2C)C2(c5ccccc5NC12)C43 (stereo not given) What is its recorded GI50?
## Result > 100 µM (inactive)

## Task Consider the molecule shown here: `NC(=O)N1N=C2c3ccccc3OC[C@H]2[C@@H]1c1ccccc1` What is its recorded GI50?
## Result 5.6 µM (inactive)

## Task Consider the molecule shown here: Nc1nc2ncc(SCc3ccc(C(=O)NC(CCC(=O)O)C(=O)O)cc3)cc2c(=O)[nH]1 (stereo not given) What is its recorded GI50?
## Result > 100 µM (inactive)

## Task Consider the molecule shown here: `Cc1ccc(S(=O)(=O)NC(=O)NCC(N)=O)cc1` What is its recorded GI50?
## Result > 100 µM (inactive)

## Task Consider the molecule shown here: CCCCCCCCC/C=C1\CC(CO)(COC(=O)C2CCCCC2)OC1=O (stereo not given) What is its recorded GI50?
## Result 23 µM (inactive)

## Task Consider the molecule shown here: `[N-]=[N+]=CC(=O)COC(=O)c1ccccc1` What is its recorded GI50?
## Result > 100 µM (inactive)

## Task Consider the molecule shown here: COc1ccc(C(NCCNC(c2ccc(OC)c(OC)c2)c2cc3c(cc2O)OCO3)c2cc3c(cc2O)OCO3)cc1OC (stereo not given) What is its recorded GI50?
## Result 2.26 µM (inactive)

## Task Consider the molecule shown here: O=[N+]([O-])c1ccc2c(c1)C1=NN(c3ccccc3)C(c3ccccc3Br)C1CCC2 (stereo not given) What is its recorded GI50?
## Result 12.4 µM (inactive)

## Task Consider the molecule shown here: `ClCCN1CCC2(CC1)SSC1(CCN(CCCl)CC1)S2` What is its recorded GI50?
## Result 45.9 µM (inactive)

## Task Consider the molecule shown here: O=C(CC(=O)c1cccc2ccccc12)C(=O)NC1C2CC3CC(C2)CC1C3 (stereo not given) What is its recorded GI50?
## Result > 100 µM (inactive)

----------
Tested on: TK-10
Test: NCI tumour cell line growth inhibition, 48 h
The source made the active and inactive calls. Rule as the data show it: active = GI50 up to about 1.1 µM and inactive = higher.
Your reply should match one of these outcome classes. active, inactive

## Task State the result this test recorded for `COc1ccc2c(c1)C(N)=C(Cc1ccncc1)C2=O` .
## Result inactive

## Task State the result this test recorded for `N#CC(C#N)=C(N)/C(C#N)=C/c1cc(O)c(O)c(Br)c1` .
## Result inactive

## Task State the result this test recorded for `C[N+](C)([O-])CCCNc1c2ccccc2nc2cccc([N+](=O)[O-])c12` .
## Result active

## Task State the result this test recorded for `Fc1cc(-c2cc(-c3ccc4c(c3)OCO4)n[nH]2)c(Cl)cc1Cl` .
## Result inactive

## Task State the result this test recorded for `C#CC1(O)c2ccccc2C(=O)c2ccccc21` .
## Result inactive

## Task State the result this test recorded for `CC(C)(C)OC(=O)c1cccnc1/C=N/O` .
## Result inactive

## Task State the result this test recorded for `CN(CCNC(=O)c1nn(-c2ccccc2)c2c1ccc1ccccc12)CCNC(=O)c1nn(-c2ccccc2)c2c1ccc1ccccc12` .
## Result inactive

## Task State the result this test recorded for `BrC1=CN2C[n+]3cc(Br)c4ccccc4c3N=C2c2ccccc21` .
## Result inactive

## Task State the result this test recorded for COC(=O)C1=C(C)N(NC(N)=O)C2(N)N(NC(N)=O)C(C)=C(C(=O)OC)C12C(=O)OC (stereo not given) .
## Result inactive

## Task State the result this test recorded for `CSc1nc(-c2ccccc2)c2c(n1)-c1ccccc1CC2` .
## Result inactive

Ref: ChEMBL document CHEMBL1201862
